Data credit: PubChem BioAssay (NCI)

# System: SNB-75 CNS
# experiment notes: NCI-60 one-dose screen, 48 h (100 = growth as untreated, 0 = no growth, -100 = all killed)
# measurement setup: 10 µM
The panel holds about 83,000 compounds, 20% with a hit somewhere; the sample as a whole holds those more often.
Give measured growth for each item. Keep answers brief.
One number for each entry, in %.

Sample records with growth:
INSERT INTO measurements (molecule, target_or_test_system, property_label, number) VALUES
  ('COc1ccc2c(c1)-c1c(c3cc(OC)ccc3n(CCN(C)C)c1=O)C2=O', 'SNB-75 CNS', 'growth', -3.22),
  ('Cn1c(C(N)=O)cc2c1-c1nc(Nc3ccccc3)ncc1CCC2', 'SNB-75 CNS', 'growth', 35.6),
  ('O=C(/C=C/c1cc2ccccc2[nH]c1=O)c1ccc2c(c1)OCO2', 'SNB-75 CNS', 'growth', 86.7),
  ('COc1ccc(-c2ccc(-c3ccc(C(=N)N)cn3)o2)cc1', 'SNB-75 CNS', 'growth', 61.1),
  ('Cn1c([N+](=O)[O-])cnc1/C=C1\Oc2ccc(Cl)cc2C1=O', 'SNB-75 CNS', 'growth', 15.7);

Answer for every listed entry: what is its growth? The entries follow.
1. O=c1c2ccccc2nc(SCCN2CCCCC2)n1CCc1ccccc1
2. COc1ccc(-c2nn(-c3cccc(NC(=O)Nc4ccccc4)c3)cc2-c2ccncc2)cc1Cl
3. C/C(N)=C(\C#N)C(=O)c1ccccc1
4. CCOC(=O)C(NC(=O)C(Cl)Cl)C(O)c1ccccc1 (stereo unspecified)
5. CC(=O)C1CCC2C3CC(F)C4=CC(=O)CCC4(C)C3C(O)CC12C (stereo unspecified)

Reply:
1: 87; 2: 27.5; 3: 93.1; 4: 91.3; 5: 103

Query: Any idea what growth was measured for `CCOC(=O)CNC(=O)CCCCSc1ncnc2nc[nH]c12` ?
Reply: 95.3

====

Assign growth to each entry below.
# System: SK-MEL-2 melanoma
# experiment notes: NCI-60 one-dose screen, 48 h (100 = growth as untreated, 0 = no growth, -100 = all killed)
# measurement setup: 10 µM
This is part of a sample that, as a whole, favours compounds with a hit. Of some 83,000 tested, about 20% had one in any assay.
One number for each entry, in %.

INSERT INTO assay_data (molecule, number) VALUES
  ('O=C(Nc1ccc(CO)cc1)c1ccccc1Nc1ccnc(C(F)(F)F)c1', 123),
  ('OCC1OC(n2cnc3c(N/N=C\c4ccccn4)ncnc32)C(O)C1O (stereo not given)', 58.2),
  ('COc1cc2c(cc1OCCCCCCN1CCN(CC(=O)Nc3ccc(Cl)cc3C(=O)c3ccccc3Cl)CC1)N=CC1CCCN1C2=O (stereo not given)', -69.6),
  ('COc1cc(-c2cc(/C=C/C(=O)c3ccc(N)cc3)[nH]n2)cc(OC)c1OC', 28.6);

Let's switch to this molecule now.
Query: Any idea what growth was measured for `COc1ccc2c(c1)nc(N)c1c3cccnc3cn21` ?
Reply: 53.2

====

# System: UACC-257 melanoma
# experiment notes: NCI-60 one-dose screen, 48 h
# measurement setup: 10 µM
This is part of a sample that, as a whole, favours compounds with a hit. Of some 83,000 tested, about 20% had one in any assay. The source made the active and inactive calls. How the source made its calls: active means growth percent below 10; inactive means the rest.
Pick one and only one: active, inactive

INSERT INTO assay_data (molecule, class_name) VALUES
  ('CN(C)CCS(=O)(=O)CCN(C)C', 'inactive'),
  ('O=[N+]([O-])c1ccc(Oc2cccnc2)c([N+](=O)[O-])c1', 'inactive'),
  ('COc1cc(/C(=C2/O[C@@H]([C@H]3COC(C)(C)O3)[C@H]3OC(C)(C)O[C@@H]23)c2ccc3ccccc3c2)cc(OC)c1OC', 'inactive'),
  ('COc1cc(OC)cc(-c2cncn2-c2ccc(-c3nc4cc(OC)cc(OC)c4s3)cc2)c1', 'inactive'),
  ('O=C1/C(=C/c2ccc(Cl)cc2)SC(=Nc2ccc(Cl)cc2)N1Cc1nc2ccccc2[nH]1', 'inactive'),
  ('CC/C(=C(/c1ccc(OCCN(C)C)cc1)c1ccc(OC(=O)CCCCC(=O)c2c(C)[nH]c(/C=C3\N=C(c4ccc[nH]4)C=C3OC)c2C)cc1)c1ccccc1', 'inactive'),
  ('CS(=O)(=O)Nc1cccc(-c2cc(-c3ccccc3Cl)c(C#N)c(N)n2)c1', 'inactive'),
  ('Cc1cccc2c1O/C(=C\c1ccc([N+](=O)[O-])o1)C2=O', 'active'),
  ('COc1ccc(-c2nn(-c3cccc(NC(=O)c4ccc(Cl)c(Cl)c4)c3)cc2-c2ccncc2)cc1Cl', 'inactive'),
  ('COc1cc(C)ccc1C(=O)c1ccc(C)cc1OC', 'inactive');

Would you kindly look at the next entry?
Query: Called result for `O=C(Nc1ccccc1)Nc1cccc(-n2cc(-c3ccncc3)c(-c3ccc(O)c(Cl)c3)n2)c1`
Reply: inactive
